# Tested on: Colorado potato beetle larval gut extracts (potato protease inhibitor-insensitive cysteine proteases)
# METHOD: General proteolytic activity of Colorado potato beetle larval gut extracts, azocasein
# Type: biochemical, Leptinotarsa decemlineata
PROPERTY NAME: Residual activity in excess of inhibitor

MOLECULE: human stefin A: Type I cystatin (protein, UniProt P01040 1-98, looked up) Cystatin-A: MIPGGLSEAKPATPEIQEIVDKVKPQLEEKTNETYGKLEAVQYKTQVVAGTNYYIKVRAGDNKYMHLKVFKSLPGQNEDLVLTGYQVDKNKDDELTGF
PROPERTY NAME: Residual activity in excess of inhibitor
RESULT: 90%

MOLECULE: chicken cystatin (protein, UniProt P01038 24-139, looked up) SEDRSRLLGAPVPVDENDEGLQRALQFAMAEYNRASNDKYSSRVVRVISAKRQLVSGIKYILQVEIGRTTCPKSSGDLQSCEFHDEPEMAKYTTCTFVVYSIPWLNQIKLLESKCQ
PROPERTY NAME: Residual activity in excess of inhibitor
RESULT: 105%

MOLECULE: porcine stefin B (protein, UniProt Q29290 1-98, looked up) MMCGAPSATQPATAEIQAIADKVKSQLEEKENKTFPVFKAVEFKSQVVAGRNLFIKVQVDDDDFVHLRVFESLPHENKPLTLSSYQTNKSRHDELTYF
PROPERTY NAME: Residual activity in excess of inhibitor
RESULT: 100%

MOLECULE: human cystatin c (protein, UniProt P01034 27-146, looked up) SSPGKPPRLVGGPMDASVEEEGVRRALDFAVGEYNKASNDMYHSRALQVVRARKQIVAGVNYFLDVELGRTTCTKTQPNLDNCPFHDQPHLKRKAFCSFQIYAVPWQGTMTLSKSTCQDA
PROPERTY NAME: Residual activity in excess of inhibitor
RESULT: 105%

Cited source for all entries: patent US6861578B1
